Assay: A549 lung cancer cell viability effects, profiling panel, resazurin fluorescence, 24 h, PK04 Diversity Set (AID 1171); further: test concentration not given here
Conditions: higher = more signal, called active from +8 up or from −8 down
QUANTITY_KIND: z-score

molecule=O=C1[C@H]2[C@H]3[C@H](O)[C@H](O)CC(=NO[C@@H]4O[C@H](CO)[C@@H](O)[C@H](O)[C@H]4O)[C@@H]3CC[C@H]2C(=O)N1Cc1ccc2c(c1)OCO2 quantity_kind=z-score value_observed=0.159
molecule="CC1(C)OCC(C(O)C2=CCCCC2=O)CO1 (centres undefined)" quantity_kind=z-score value_observed=-0.939
molecule=COc1ccc(O[C@H]2C=C[C@@H](c3ccccc3)O[C@@H]2COC(=O)CCC(C)=NOCC[C@@H]2C=C[C@H](OC(C)=O)[C@@H](COC(C)=O)O2)cc1 quantity_kind=z-score value_observed=0.369
molecule=CC(C)[C@H](NC(=O)OC(C)(C)C)[C@@H](O)CC(=O)OC(C)(C)C quantity_kind=z-score value_observed=-1.54
molecule=C[C@H]1CC[C@@H](C(=O)O)N[C@@H]1c1ccc(C#CCN(C)C)cc1 quantity_kind=z-score value_observed=0.413
molecule=COCC1=C2[C@@H](CCc3ccccc3)OB(O)C[C@@H]2n2c(=O)n(-c3ccccc3)c(=O)n2C1 quantity_kind=z-score value_observed=-0.566
molecule=COCC(=C=CC[C@@H](O)c1ccccc1OCCO)CCO quantity_kind=z-score value_observed=0.675
molecule="COC(=O)CC1OC1[C@H](C)[C@@H](OC)C(C)C (some centres undefined)" quantity_kind=z-score value_observed=-0.292
molecule=COC(=O)CC=C[C@@H](C)[C@@H](C=NO[C@H](C)c1cn([C@@H]2COC[C@H]2O)nn1)OC quantity_kind=z-score value_observed=-0.567

###

Assay: modulators of S6 phosphorylation in cells, primary screen, cell-based, A549, cytoblot, luminescence, serum-stimulated (AID 1158);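 further: serum-stimulated A549 lung adenocarcinoma cells; signal is phosphorylated S6 detected by cytoblot immunostaining with HRP secondary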
Details: A549 phospho-S6 cytoblot, 5 h, higher = more signal
QUANTITY_KIND: z-score

molecule="COc1ccc(-c2ccc3c(n2)CCCN3CC(O)CN2CCCc3nc(C)c(C)cc32)cc1 (configuration not stated)" quantity_kind=z-score value_observed=-0.0509
molecule="CCOC(=O)[C@H](Cc1ccccc1)NC(=O)CCC1CC(OC(=O)NCc2ccc3c(c2)OCO3)CC2(CCCC(COC(=O)NCC(c3ccccc3)c3ccccc3)O2)O1 (some centres not stated)" quantity_kind=z-score value_observed=0.0394
molecule=O=C1O[C@@H](c2ccccc2)[C@@H](c2ccccc2)N2[C@@H](c3ccc(OCCO)cc3)[C@]3(C(=O)Nc4ccccc43)[C@@H](C(=O)N3CCN(c4ncccn4)CC3)[C@H]12 quantity_kind=z-score value_observed=-0.183
molecule=CO[C@@H]1COC(=O)CC=C[C@@H](C)[C@@H]2C=C[C@H](O)[C@@H](COC(=O)CCC[C@H]1C)O2 quantity_kind=z-score value_observed=0.49
molecule=C=CC[C@@H]1C=C[C@H](ON=C2c3cc(OC)ccc3O[C@H](c3cccc(OC)c3)[C@H]2O)[C@@H](CO)O1 quantity_kind=z-score value_observed=-0.171
molecule=COc1ccc(COC(=O)NN=C2C[C@@H](O)[C@@H](O)[C@@H]3[C@@H]4C(=O)N(Cc5ccc6c(c5)OCO6)C(=O)[C@@H]4CC[C@@H]23)cc1 quantity_kind=z-score value_observed=1.27
molecule=COc1ccc(CCNC(=O)[C@@H]2c3ccccc3C(=O)N(c3ccc(C)cn3)[C@H]2c2ccc(CO)cc2)cc1 quantity_kind=z-score value_observed=-0.0568

Reference for the values: PubChem BioAssay
